From: paper PMC11677527

# measurement_protocol: Verification pharmacokinetic experiment in rats, SPC 60 g crude drug/kg by gavage, UFLC-MS/MS, DAS 2.0
# Type: in vivo, rat
# test_conditions: rat, plasma, po, 1.4 mg/kg; statistical moment parameters, DAS 2.0; rats p.o. SPC 60 g crude drug/kg; Mean, 5 rats; read-out: MRT(0-t)

compound	MRT last / h
O=c1c(-c2ccc(O)cc2)coc2cc(O[C@@H]3O[C@H](CO)[C@@H](O)[C@H](O)[C@H]3O)ccc12 [Constituent 3, daidzin]	1.83

----------
# measurement_protocol: Verification pharmacokinetic experiment in rats, SPC 60 g crude drug/kg by gavage, UFLC-MS/MS, DAS 2.0
# Type: in vivo, rat
# test_conditions: rat, plasma, po, 1.4 mg/kg, compartment model parameters, DAS 2.0; rats p.o. SPC 60 g crude drug/kg; Mean, 5 rats; read-out: t1/2β (converted)
# Protocol: To validate the accuracy of PBPK models in predicting the pharmacokinetics of SPC constituents at different oral doses, the pharmacokinetic behavior of these four constituents from SPC in rats were analyzed by UFLC-MS/MS. The parameters were calculated using Drug and Statistics Software version 2.0, and then these validated values (Val.) were used to check the accuracy of the Calc. values and evaluated by FE. […]
experimental_readout: half-life (h)

smiles_input	experimental_readout	reported_result
O=c1c(-c2ccc(O)cc2)coc2cc(O[C@@H]3O[C@H](CO)[C@@H](O)[C@H](O)[C@H]3O)ccc12	half-life	36.5
